# Tested on: mice
# assay-explanation: Writhing assay (phenylbenzoquinone-induced writhing)
# Assay type: in vivo, mouse
# condition-info: screening dose 10 mg/kg p.o. (intragastric), 30 min before phenylbenzoquinone i.p.
value-type: Writhing Mouse Oral

compound: Cc1cc(O)cc(C)c1CC(NC(=O)OC(C)(C)C)C(=O)N[C@H](C)C(=O)NCCOc1ccccc1 (mixture of isomers)
system-under-test: mice
value-type: Writhing Mouse Oral
result: Active

compound: Cc1cc(O)cc(C)c1C[C@H](N)C(=O)N[C@H](C)C(=O)N1CCc2ccccc2C1.Cl (single isomer, unassigned)
system-under-test: mice
value-type: Writhing Mouse Oral
result: Active

compound: Cc1cc(O)cc(C)c1C[C@H](N)C(=O)N[C@H](C)C(=O)NCCC(c1ccccc1)c1ccccc1.Cl
system-under-test: mice
value-type: Writhing Mouse Oral
result: Inactive

compound: Cc1cc(O)cc(C)c1CC(NC(=O)OC(C)(C)C)C(=O)N[C@H](C)C(=O)NCCSc1ccccc1 (mixture of isomers)
system-under-test: mice
value-type: Writhing Mouse Oral
result: Inactive

compound: Cc1cc(O)cc(C)c1C[C@H](N)C(=O)N[C@@H](C)C(=O)N1CCCc2ccccc21.Cl (relative stereo)
system-under-test: mice
value-type: Writhing Mouse Oral
result: Inactive

Writhing Mouse Oral for C[C@@H](N)C(=O)NCCCc1cccs1 ?
Active

---

# system-under-test: opiate receptors isolated from rat brain
# Assay type: binding
# condition-info: 1 nM 3H-Naloxone, rat brain receptor membranes; standard screening dose 10^-5 molar (words such as Inactive refer to it); read-out: Opiate Binding, IC50
Reported pIC50 values follow for various compounds
// scale note: pIC50 = -log10(conc_M); give the bare number

compound: COc1ccc(CCCNC(=O)[C@@H](C)N)cc1
system-under-test: opiate receptors isolated from rat brain
result: 4.44

compound: Cc1cc(O)cc(C)c1C[C@H](N)C(=O)N[C@H](C)C(=O)N1CCc2ccccc2C1.Cl (single isomer, unassigned)
system-under-test: opiate receptors isolated from rat brain
result: 7.85

compound: Cc1cc(O)cc(C)c1C[C@H](N)C(=O)N[C@H](C)C(=O)NCCC(c1ccccc1)c1ccccc1.Cl [Example 73, monohydrochloride]
system-under-test: opiate receptors isolated from rat brain
result: 9.52

In the following, a different compound is considered.
I'm curious: which pIC50 was measured for C[C@@H](NC(=O)OCc1ccccc1)C(=O)N1CCCc2ccccc21 tested on opiate receptors isolated from rat brain?
4.10

---

# system-under-test: opiate receptors isolated from rat brain
# Type: binding
# condition-info: read-out: Opiate Binding, IC50
value-type: IC50 (nM)
The answer is to be given in nM; state only the numeric part.

Look over these answered cases.
molecule: Cc1cc(O)cc(C)c1C[C@H](N)C(=O)N[C@H](C)C(=O)NCCSc1ccccc1.Cl [Example 109, monohydrochloride]
result: 0.4

molecule: Cc1cc(O)cc(C)c1C[C@H](N)C(=O)N[C@@H](C)C(=O)N1CCCc2ccccc21.Cl (relative stereo) [Example 29, monohydrochloride]
result: 4900

molecule: Cc1cc(O)cc(C)c1CC(NC(=O)OC(C)(C)C)C(=O)N[C@H](C)C(=O)NCCOc1ccccc1 (mixture of isomers) [Example 115]
result: 8.7

In the following, a different molecule is considered.
IC50 for Cc1cc(O)cc(C)c1CC(NC(=O)OC(C)(C)C)C(=O)N[C@H](C)C(=O)NCCSc1ccccc1 (mixture of isomers) [Example 108] ?
8.2
